The measured values listed here are drawn from PubChem BioAssay.

measurement_description: inhibitors of Sendai virus-induced IRF3 signaling, primary screen, TLR/RLR signaling modifier project, cell-based, Sendai virus stimulus, luciferase, 10K MLSCN set (AID 602276);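 note: firefly luciferase from ISG56 promoter only with Renilla not read in this screen; 0% = Sendai virus plus DMSO and 100% = medium plus DMSO without virus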
conditions: HEK293 RL24 IRF3 luciferase reporter, at 10 µM, stronger effect = higher value
measure: inhibition (%)
Give bare numbers, in %.

Reference set, count: 4
Which measured inhibition value corresponds to O=C(NC1CCCCC1)c1cc2nc(-c3ccco3)cc(C(F)(F)F)n2n1 ? 10.5

Look up inhibition: O=C(NC1CC1)C1CCN(c2ccc(S(=O)(=O)N3CCOCC3)cc2)CC1 -7.23

Which measured inhibition value corresponds to Cc1nc2sc(C(c3ccc(Br)cc3)N3CC(C)OC(C)C3)c(O)n2n1 (centres undefined) ? 4.21

Any idea what inhibition was measured for O=C(O)C1CC=CCC1C(=O)Nc1ccc(S(=O)(=O)N2CCCc3ccccc32)cc1 (centres undefined) ? 46

// each molecule listed below needs its inhibition
1. CCOc1cc2[nH]c(=O)n(CCCCC(=O)NCc3ccco3)c(=O)c2cc1OCC
2. Cc1c(C#N)c2ccccc2n1CC(=O)N1CCc2ccccc2C1
3. CCOc1ccc(CNc2ccc3c(c2)ncn3C)cc1
4. CCOc1ccc(Cn2nnc(C(=O)NCc3ccc(OC)cc3)c2N)cc1

9.08
-9.66
-27.2
17.5

----------
Record form. Attribute: nuclei count. Fill in for each entry.
measurement_description: inhibitors of E-selectin induction by TNFa, primary screen, imaging, HUVEC, immunofluorescence, MLSMR starter and 10KST1 sets (AID 487);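 note: 100% = median nuclei count of all wells on the same plate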
conditions: HUVEC TNFalpha-induced E-selectin immunofluorescence imaging, at 2 µM; measured here: cell number, toxicity
Numbers only, in %.

Which measured nuclei count value corresponds to Cc1ccc(-n2ncc3c(NCc4ccc5c(c4)OCO5)ncnc32)c(C)c1 ? 135

Value lookup for nuclei count; key = COc1ccccc1C1/C(=C(\O)c2ccc3c(c2)OCCO3)C(=O)C(=O)N1CCCN(C)C (centres undefined) 134

I have this compound here, COC(=O)c1ccc(Cn2c(O)c(N=O)c3ccccc32)o1 , and I need its recorded nuclei count. 122

Requested read-out: nuclei count. Entry: COC(=O)c1sc2ccccc2c1NC(=O)c1cccs1 99.1

nuclei count for CCOC(=O)C1=C(N)OC2=C(C(=O)CC(C)(C)C2)C1c1ccco1 (centres undefined) ? 110

Find the recorded nuclei count belonging to COCCNC(=O)C(C#N)c1nc2ccccc2nc1N1CCN(Cc2ccc3c(c2)OCO3)CC1 (centres undefined) and report it. 172

Below is a list of compounds. For each, state its recorded nuclei count.
1. Cc1cccc(OCCNC(=O)c2ncn[nH]2)c1
2. CCCCCc1c(C)nc(N2CCc3ccccc32)[nH]c1=O
3. Cn1c(NCC(O)c2ccccc2)nc2c1c(=O)n(Cc1ccc(Cl)cc1)c(=O)n2C (centres undefined)
4. N#Cc1nc(COc2ccc(Br)cc2)oc1N1CCN(Cc2ccccc2)CC1
5. C=CCOc1ccc(/C=N/n2cncn2)cc1OC

144
89.4
103
138
81.6

Fill in nuclei count for each of the 3 compounds listed.
1. Nc1nc(-c2ccc(Cl)cc2)nn1C(=O)c1cccnc1
2. O=P(O)(CN1CCCCCC1)CN1CCCCCC1
3. O=C(CN1CCN(Cc2ccc3c(c2)OCO3)CC1)Nc1ccc2c(c1)OCCO2

1: 105; 2: 112; 3: 85.5

Look up nuclei count for the entries below, preserving their order.
1. CCC1(C)Cc2c(C#N)c(N)n(N)c(=S)c2CO1 (centres undefined)
2. Cn1c(N2CCN(c3ccccn3)CC2)nc2c1c(=O)n(Cc1ccc(Cl)cc1)c(=O)n2C
3. O=C(c1ccco1)N1CCN(C(=O)C2CC(c3ccc(F)cc3)=NO2)CC1 (centres undefined)
4. CCOC(=O)c1c(C)[nH]c(C(=O)Cn2c(=O)c3c(ncn3CC)n(Cc3ccccc3)c2=O)c1C
5. COCCCNC(=O)c1c(N)n(/N=C/c2cccnc2)c2nc3ccccc3nc12
6. Cc1csc2ncc(C(=O)N3CCc4ccccc43)c(=O)n12
7. Cc1cc(Nc2ccccc2)n(-c2ccccc2)n1

106
180
112
127
113
110
128
